Give measured % Binding retained on T-cells, 55° C. for each item. Keep answers brief.
target: T1, CD3 on primary human pan T cells (human, UniProt P07766 23-207); assay: flow cytometry, pan T-cells
T1 construct: on cells it stands in the TCR/CD3 complex; also called Pan T-cells (CD3-positive); endogenous CD3
T1 sequence (P07766 23-207 limits assumed): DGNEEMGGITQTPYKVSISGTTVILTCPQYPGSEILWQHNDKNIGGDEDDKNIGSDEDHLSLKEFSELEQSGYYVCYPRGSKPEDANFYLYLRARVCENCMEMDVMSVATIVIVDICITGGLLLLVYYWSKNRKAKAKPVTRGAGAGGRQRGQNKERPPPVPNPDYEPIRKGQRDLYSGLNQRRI
Answers are plain numbers, in fraction.

Go through the items and report each one's % Binding retained on T-cells, 55° C..
1. CD3B2064 (scFv) scFv: QVQLVQSGAEVKKPGSSVKVSCKASGYTFTRSTMHWVKQAPGQGLEWIGYINPSSAYTNYAQKFQGRVTLTADKSTSTAYMELSSLRSEDTAVYYCASPQVHYDYNGFPYWGQGTLVTVSSGGSEGKSSGSGSESKSTGGSEIVLTQSPATLSASPGERVTLSCSASSSVSYMNWYQQKPGQSPRRWIYDSSKLASGVPARFSGSGSGRDYTLTISSLEPEDFAVYYCQQWSRNPPTFGGGTKVEIK
2. CD3B2033 (scFv) scFv: QVQLVQSGAEVKKPGSSVKVSCKASGYTFTRSTMHWVKQAPGQGLEWMGYINPSSAYTNYNQKFQGRVTLTADKSTSTAYMELSSLRSEDTAVYYCASPQVHYDYNGFPYWGQGTLVTVSSGGSEGKSSGSGSESKSTGGSEIVLTQSPATLSASPGERVTLSCSASSSVSYMNWYQQKPGTAPRRLIYDSSKLASGVPARFSGSGSGRDYTLTISSLEPEDFAVYYCQQWSRNPPTFGGGTKVEIK
3. CD3B2085 (scFv) scFv: QVQLVQSGAEVKKPGSSVKVSCKASGYTFTRSTMHWVRQAPGQGLEWMGYINPSSAYTNYAQKFQGRVTLTADKSTSTAYMELSSLRSEDTAVYYCASPQVHYDYNGFPYWGQGTLVTVSSGGSEGKSSGSGSESKSTGGSEIVLTQSPATLSASPGERVTLSCSASSSVSYMNWYQQKPGTAPRRWIYDSSKLASGVPARFSGSGSGRDYTLTISSLEPEDFAVYYCQQWSRNPPTFGGGTKVEIK

Found:
1: 1.17; 2: 1.07; 3: 1.01

Go through the items and report each one's % Binding retained on T-cells, 55° C..
1. CD3B2038 (scFv) scFv: QVQLVQSGAEVKKPGSSVKVSCKASGYTFTRSTMHWVKQAPGQGLEWMGYINPSSAYTNYAQKFQGRVTLTADKSTSTAYMELSSLRSEDTAVYYCASPQVHYDYNGFPYWGQGTLVTVSSGGSEGKSSGSGSESKSTGGSEIVLTQSPATLSASPGERVTLSCSASSSVSYMNWYQQKPGTAPRRLIYDSSKLASGVPARFSGSGSGRDYTLTISSLEPEDFAVYYCQQWSRNPPTFGGGTKVEIK
2. CD3B2042 (scFv) scFv: QVQLVQSGAEVKKPGSSVKVSCKASGYTFTRSTMHWVRQAPGQGLEWIGYINPSSAYTNYNQKFQGRVTLTADKSTSTAYMELSSLRSEDTAVYYCASPQVHYDYNGFPYWGQGTLVTVSSGGSEGKSSGSGSESKSTGGSEIVLTQSPATLSASPGERVTLSCSASSSVSYMNWYQQKPGTSPRRLIYDSSKLASGVPARFSGSGSGRDYTLTISSLEPEDFAVYYCQQWSRNPPTFGGGTKVEIK
3. CD3B2041 (scFv) scFv: QVQLVQSGAEVKKPGSSVKVSCKASGYTFTRSTMHWVRQAPGQGLEWIGYINPSSAYTNYNQKFQGRVTLTADKSTSTAYMELSSLRSEDTAVYYCASPQVHYDYNGFPYWGQGTLVTVSSGGSEGKSSGSGSESKSTGGSEIVLTQSPATLSASPGERVTLSCSASSSVSYMNWYQQKPGTAPRRWIYDSSKLASGVPARFSGSGSGRDYTLTISSLEPEDFAVYYCQQWSRNPPTFGGGTKVEIK

Found:
1. 1.03
2. 0.993
3. 1.06
